# Lookup of reported inhibition keyed by entry
- Subject of test: Genome polyprotein (dengue virus type 2)
- Protocol notes: Inhibition of full length DENV2 NS2B-NS3 protease in human HeLa cells expressing luciferase reporter gene at 12.5 uM incubated for 24 hrs by luminescence analysis relative to control
- Assay type: cell-based
Number in %, nothing else.

O=S(=O)(Nc1ccc2c(c1)B(O)OC2)c1ccc(Cl)cc1 = 51.6
O=C(Nc1ccc2c(c1)B(O)OC2)c1ccccc1OCc1ccccc1 = 66.7
O=C(Nc1ccc2c(c1)B(O)OC2)c1ccc(OCc2ccccc2)cc1 = 54.4
O=C(Nc1ccccc1)Nc1ccc2c(c1)B(O)OC2 = 31
O=C(Nc1ccc2c(c1)B(O)OC2)c1cccc(OCC2CCCCC2)c1 = 79.1

Switching to the query record.
Challenge: Please supply the value of reported inhibition for the item O=C(Nc1ccc2c(c1)B(O)OC2)c1ccc(OCc2ccc(Cl)cc2)cc1
Response given: 31.3

---

# Lookup of reported inhibition keyed by entry
- Subject of test: Replicase polyprotein 1ab (Severe acute respiratory syndrome coronavirus 2)
- Protocol notes: Inhibition of C-terminal His tagged SARS CoV-2 main protease transfected in Escherichia coli BL21 (DE3) using 2-Abz-Ser-AlaVal-Leu-Gln-Ser-Gly-Tyr(3-NO2)-Arg-OH as substrate at 50 uM preincubated for 15 mins followed by substrate addition and measured after 15 mins by FRET assay relative to control
- Assay conditions: time 30.0 min
Number in %, nothing else.

As a guide, the following entries are already answered.
O=C(Nc1ccc2c(c1)B(O)OC2)c1cccc(OCc2ccccc2)c1 = 99.6
O=C(Nc1ccc2c(c1)B(O)OC2)c1ccc(Oc2ccccc2)cc1 = 19.5
O=C(Nc1ccc2c(c1)B(O)OC2)c1ccc(OCc2ccccc2)cc1 = 39.6

Challenge: Please supply the value of reported inhibition for the item O=C(Nc1ccc2c(c1)B(O)OC2)c1ccc(OCc2ccc(Cl)cc2)cc1
Response given: 20.4

Challenge: Please supply the value of reported inhibition for the item Nc1ccc(C(=O)Nc2ccc3c(c2)B(O)OC3)cc1
Response given: 39.7

Challenge: Please supply the value of reported inhibition for the item N=C(N)Nc1ccc(C(=O)Nc2ccc3c(c2)B(O)OC3)cc1
Response given: 87.4

---

- Subject of test: Replicase polyprotein 1ab (Severe acute respiratory syndrome coronavirus 2, UniProt P0DTD1)
Readout type: pIC50
The quantity pIC50 is defined as the negative base-10 logarithm of the molar concentration.

As a guide, the following entries are already answered.
Cc1cccc(COc2cccc(C(=O)Nc3ccc4c(c3)B(O)OC4)c2)c1 = 4.22
O=C(Oc1cncc(Cl)c1)c1cccs1 = 5.77
O=C(Nc1ccc2c(c1)B(O)OC2)c1cccc(NCc2ccccc2)c1 = 4.24

Challenge: Please supply the value of reported pIC50 for the item O=C(Nc1cccc(C(=O)Nc2ccc3c(c2)B(O)OC3)c1)c1ccccc1
Response given: 4.28

Challenge: Please supply the value of reported pIC50 for the item O=C(Nc1ccc2c(c1)B(O)OC2)c1cccc(OCc2ccccc2)c1
Response given: 5.21

Challenge: Please supply the value of reported pIC50 for the item N=C(N)Nc1ccc2c(c1)B(O)OC2
Response given: 5.00

Challenge: Please supply the value of reported pIC50 for the item O=C(Nc1ccc2c(c1)B(O)OC2)c1cccc(OCc2ccccc2)n1
Response given: 4.41

Challenge: Please supply the value of reported pIC50 for the item N=C(N)Nc1ccc(C(=O)Nc2ccc3c(c2)B(O)OC3)cc1
Response given: 4.86

---

- Subject of test: Replicase polyprotein 1ab (Severe acute respiratory syndrome coronavirus 2)
Readout type: Ki (µM)
Number in µM, nothing else.

Challenge: Print Replicase polyprotein 1ab (Severe acute respiratory syndrome coronavirus 2) Ki for O=C(Nc1ccc2c(c1)B(O)OC2)c1cccc(OCc2ccccc2)c1 .
Response given: 6.2

---

- Protocol notes: Selectivity index, ratio of CC50 for cytotoxicity against human HeLa cells expressing luciferase-based DENV-2 protease reporter system to EC50 for inhibition of full length DENV2 NS2B-NS3 protease in human HeLa cells expressing luciferase reporter gene
- Type: toxicity, cell-based
- Assay conditions: read-out: Ratio CC50/EC50
Readout type: selectivity ratio
Answer with a bare number; do not write a unit.

Challenge: Please supply the value of reported selectivity ratio for the item O=C(Nc1ccc2c(c1)B(O)OC2)c1cccc(OCc2c(Cl)cccc2Cl)c1
Response given: 74

---

- Subject of test: Genome polyprotein (dengue virus type 2, UniProt P29990)
- Protocol notes: Inhibition of full length DENV2 NS2B-NS3 protease in human HeLa cells expressing luciferase reporter gene incubated for 24 hrs by luminescence analysis
EC50 less than 9 µM is Satisfied; EC50 greater than or equal to 9 µM is Not satisfied.

Worked cases, answers included:
Cc1onc(-c2ccc(F)cc2)c1C(=O)Nc1ccc2c(c1)B(O)OC2 = Not satisfied
O=C(Nc1ccc2c(c1)B(O)OC2)OCc1ccccc1 = Satisfied
CN(c1ccc2c(c1)B(O)OC2)S(=O)(=O)c1ccc(Cl)cc1 = Not satisfied
O=C(Nc1cccc(B(O)O)c1)c1cccc(OCc2ccccc2)c1 = Not satisfied

API: the following record is the query input.
Challenge: I wonder whether O=C(Nc1ccc2c(c1)B(O)OC2)c1ccc(Oc2ccccc2)cc1 has EC50 below 9 µM. Can you tell?
Response given: Satisfied

---

- Subject of test: Replicase polyprotein 1ab (Severe acute respiratory syndrome coronavirus 2)
- Protocol notes: Inhibition of C-terminal His tagged SARS CoV-2 main protease transfected in Escherichia coli BL21 (DE3) using 2-Abz-Ser-AlaVal-Leu-Gln-Ser-Gly-Tyr(3-NO2)-Arg-OH as substrate at 50 uM preincubated for 15 mins followed by substrate addition and measured after 15 mins by FRET assay relative to control
- Assay conditions: time 30.0 min
We use 30% as the dividing line for inhibition: on or above the line is TRUE, below is FALSE.

Worked cases, answers included:
N#Cc1ccc(CNc2ccc3c(c2)B(O)OC3)cc1 = FALSE
O=C(Nc1ccc2c(c1)B(O)OC2)c1cccc(Oc2ccccc2)c1 = TRUE
COc1cccc(C(=O)Nc2ccc3c(c2)B(O)OC3)c1 = FALSE
O=C(Nc1ccc2c(c1)B(O)OC2)c1cccc(OCc2c(Cl)cccc2Cl)c1 = TRUE
O=C(Nc1ccc2c(c1)B(O)OC2)c1ccc(N2CCOCC2)cc1 = FALSE
O=C(Nc1ccc2c(c1)B(O)OC2)c1ccc(C(F)(F)F)cc1 = FALSE
N=C(N)Nc1ccc2c(c1)B(O)OC2 = TRUE
O=C(Nc1ccccc1)Nc1ccc2c(c1)B(O)OC2 = FALSE
CN(c1ccc2c(c1)B(O)OC2)S(=O)(=O)c1ccc(Cl)cc1 = FALSE

Challenge: Record Cc1cccc(COc2cccc(C(=O)Nc3ccc4c(c3)B(O)OC4)c2)c1 ; criterion: inhibition no lower than 30%. Met?
Response given: TRUE

---

# Lookup of reported CC50 keyed by entry
- Test system: HeLa
- Protocol notes: Cytotoxicity against human HeLa cells expressing luciferase-based DENV-2 protease reporter system assessed as reduction in cell viability by celltiter-blue assay
- Assay type: toxicity

CCCCCC(=O)Nc1ccc2c(c1)B(O)OC2 = > 200 µM
O=C(Nc1cccc(C(=O)Nc2ccc3c(c2)B(O)OC3)c1)c1ccccc1 = > 200 µM
O=C(Nc1ccc2c(c1)B(O)OC2)c1cccc(OCc2ccc(Cl)cc2)c1 = 75.3 µM
COc1cccc(COc2cccc(C(=O)Nc3ccc4c(c3)B(O)OC4)c2)c1 = > 200 µM
O=C(Nc1ccc2c(c1)B(O)OC2)c1cccc(OCc2ccccc2)n1 = 124 µM
Cc1onc(-c2ccc(F)cc2)c1C(=O)Nc1ccc2c(c1)B(O)OC2 = > 100 µM

Challenge: Please supply the value of reported CC50 for the item O=C(Nc1ccc2c(c1)B(O)OC2)c1ccc(N2CCOCC2)cc1
Response given: > 50 µM

Challenge: Please supply the value of reported CC50 for the item Nc1ccc2c(c1)B(O)OC2
Response given: > 100 µM

Challenge: Please supply the value of reported CC50 for the item N=C(N)Nc1ccc(C(=O)Nc2ccc3c(c2)B(O)OC3)cc1
Response given: > 200 µM

Challenge: Please supply the value of reported CC50 for the item OB1OCc2cc(F)ccc21
Response given: > 50 µM

---

- Subject of test: Genome polyprotein (dengue virus type 2) (UniProt P29990)
- Protocol notes: Inhibition of full length DENV2 NS2B-NS3 protease in human HeLa cells expressing luciferase reporter gene at 12.5 uM incubated for 24 hrs by luminescence analysis relative to control
- Type: cell-based
# Lookup of reported inhibition keyed by entry
Number in %, nothing else.

O=C(Nc1ccc2c(c1)B(O)OC2)c1ccc(Oc2ccccc2)cc1 = 79.7
N=C(N)Nc1ccc(C(=O)Nc2ccc3c(c2)B(O)OC3)cc1 = 23
O=C(Nc1ccc2c(c1)B(O)OC2)c1cccc(OCc2ccccc2)c1 = 81.2
OB1OCc2cc(F)ccc21 = 15.3
N#Cc1ccc(CNc2ccc3c(c2)B(O)OC3)cc1 = 41.8

Switching to the query record.
Challenge: Please supply the value of reported inhibition for the item COc1cccc(COc2cccc(C(=O)Nc3ccc4c(c3)B(O)OC4)c2)c1
Response given: 90
